- System: HT-1080
- experiment: relative cell viability with RSL3 co-treatment (fraction of control); higher = stronger protection from RSL3-induced ferroptosis (higher viability)
- experimental_setup: 10 µM
endpoint_label: relative cell viability
Reply with the value as a number alone.

Look over these answered cases.
Consider the molecule shown here: O=C1NC(=O)C(=Cc2ccc(-c3ccc(F)cc3)o2)S1 (stereo in doubt) What is its recorded relative cell viability?
0.887

Repeat for the following molecule: O=C(NOC[C@H](O)CO)c1ccc(F)c(F)c1Nc1ccc(I)cc1F
0.897

And for O=C1Nc2ccc(I)cc2/C1=C/c1cc(Br)c(O)c(Br)c1 ?
0.573

What about this molecule? Cc1ccc2nc(NCCN)c3ncc(C)n3c2c1
0.703

Next:
Could you share which relative cell viability value was measured for CS(=O)(=O)CCNCc1ccc(-c2ccc3ncnc(Nc4ccc(OCc5cccc(F)c5)c(Cl)c4)c3c2)o1 ?
0.673

Same thing, different molecule: O=C(/C=C/c1ccc(O)c(O)c1)c1ccc(O)cc1O
0.74

====

- Tested on: HT-1080
- experiment: relative cell viability with RSL3 co-treatment (fraction of control); higher = stronger protection from RSL3-induced ferroptosis (higher viability)
- experimental_setup: 10 µM
relative cell viability for assorted molecules
// return a plain number; no unit text

Worked cases, relative cell viability given:
Which relative cell viability value belongs to Cn1cnc2c(F)c(Nc3ccc(Br)cc3Cl)c(C(=O)NOCCO)cc21 [Selumetinib (AZD6244)] ?
0.807

Could you do the same for C=CC(=O)Nc1cccc(Oc2nc(Nc3ccc(N4CCN(C)CC4)cc3OC)ncc2Cl)c1 , please?
0.927

For CN1CCN(c2nc(C3=C(c4c[nH]c5ccccc45)C(=O)NC3=O)c3ccccc3n2)CC1 [Sotrastaurin] then?
0.903

Next molecule: CC(C)[C@H](CO)Nc1nc(Nc2cccc(Cl)c2)c2ncn(C(C)C)c2n1 [Purvalanol A]
0.65

Repeat for the following molecule: C[C@@H](N)[C@H]1CC[C@H](C(=O)Nc2ccncc2)CC1
0.843

Next molecule up: CCN(C)S(=O)(=O)Nc1ccc(F)c(C(=O)c2c[nH]c3ncc(-c4cnc(C5CC5)nc4)cc23)c1F
0.71

Next entry: COc1cc(N2CCC(N(C)C)CC2)ccc1Nc1ncc(Cl)c(Nc2ccccc2P(C)(C)=O)n1
0.36

Please give the result for NC1(Cc2ccc(Cl)cc2)CCN(c2ncnc3[nH]ccc23)CC1 too.
0.473

As a next step, examine the molecule that follows.
Looking for the measured relative cell viability of NC[C@@](O)(c1ccc(Cl)cc1)c1ccc(-c2cn[nH]c2)cc1 , can you help?
0.687

====

- Test system: HT-1080
- experiment: relative cell viability with RSL3 co-treatment (fraction of control); higher = stronger protection from RSL3-induced ferroptosis (higher viability)
- experimental_setup: 10 µM
# relative cell viability per record follows
# output: bare number, no unit

Answered cases to consult:
Which measured relative cell viability belongs to CCN1CCN(Cc2ccc(-c3cc4c(N[C@H](C)c5ccccc5)ncnc4[nH]3)cc2)CC1 , tested on HT-1080?
0.49

O=c1cc(N2CCOCC2)oc2c(-c3ccccc3)cccc12 , same question.
0.76

Follow-up item: COc1cc2c(Oc3ccc4[nH]c(C)cc4c3F)ncnc2cc1OCCCN1CCCC1
0.283

Please do the same for O=C(Nc1ccccc1C(=O)NC1CCCCNC1=O)c1cc2ccccc2s1 (centres undefined) as well.
0.803

// next record CCCCCCCCCCCCc1ccc(S(=O)(=O)Nc2nncs2)cc1
0.877

Others:
Please state recorded relative cell viability (tested on HT-1080) of CCCS(=O)(=O)Nc1ccc(F)c(C(=O)c2c[nH]c3ncc(Cl)cc23)c1F;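 also: viability read as CCK-8 absorbance at 450 nm in cells co-exposed to the GPX4 inhibitor RSL3, relative to a 0.01% DMSO vehicle control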
0.64

Next entry: COCCOc1cnc2ccn([C@H](C)c3nnc4c(F)cc(-c5cnn(C)c5)cn34)c(=O)c2c1
0.777

Also, COc1cc(Nc2ncc(F)c(Nc3ccc4c(n3)N(COP(=O)(O)O)C(=O)C(C)(C)O4)n2)cc(OC)c1OC [Fostamatinib (R788)] please.
0.6

Same again, this time with CN1CCN(c2cccc(Nc3nc4c(-c5ccc(S(C)(=O)=O)cc5)cccn4n3)c2)CC1
1.21
